src = patent US10550073B2

Test system: TNF-α
test: In vitro cell experiment: LPS-stimulated TNF-α release in THP-1 cells (ELISA)
Assay type: cell-based
experimental-context: Homo sapiens; TNF-α in supernatant of THP-1 cells, compound 2 h then LPS 10 μg/ml 2 h
Recorded IC50 values for a group of compounds are listed next.

# example entries with known answers
1. Cc1c(F)cc(C(=O)NC2CC2)cc1-c1ccc(C(=O)N(C)CC(C)C)nn1 :: 5 to 10 nM
2. Cc1c(F)cc(C(=O)NC2CC2)cc1-c1ccc(C(=O)N2CCCCCC2)cc1 :: 5 to 10 nM
3. Cc1c(F)cc(C(=O)NC2CC2)cc1-c1ccc(C(=O)N(C)C2CCCC2)cc1 :: 5 to 10 nM

Query block: Looking for the measured IC50 of Cc1c(F)cc(C(=O)NC2CC2)cc1-c1ccc(C(=O)NCC(C)(C)C)cn1 [Comparative example, reference compound] , can you help?
Result block: 10 to 20 nM

Query block: Now the compound `Cc1c(F)cc(C(=O)NC2CC2)cc1-c1ccc(C(=O)NC2CCCCC2)nn1`
Result block: < 5 nM
